measurement-protocol: NOD1 signaling inhibitors, primary screen, cell-based, luminescence, uHTS (AID 1578);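 note: HEK-293T reporter cells stimulated with the NOD1 agonist gamma-tri-DAP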
condition-description: NOD1-driven NF-kB luciferase reporter cells, at 4 µM
In all, about 290,000 compounds went through this assay and about 3,000 (1%) were called active. Cut-off read from the data, not from the text of the source: active = inhibition mostly above about 36% (no sharp cut-off); inactive = mostly below about 34%. The full list was thinned out, with actives kept by preference.
Respond with a class label; see active, inactive

Brc1ccc(OCc2cn3ccccc3n2)cc1 :: inactive
CC(=O)n1cc([C@@H]2C=C(C(=O)NCc3ccccc3)O[C@H](OCc3ccc(CO)cc3)C2)c2ccccc21 :: inactive

// query Hi, do you know how O=C(NCc1ccccc1)C1=C[C@@H](c2csc3ccccc23)C[C@@H](OCc2ccc(CO)cc2)O1 came out in this test?
// result active

// query Follow-up entry: CCOC(=O)c1c(C)[nH]c(C)c1-c1ccccc1OC
// result inactive

// query Follow-up entry: CCOC(=O)c1c(C)[nH]c2c1-c1ccccc1C(=O)C2=O
// result active

// query Follow-up entry: CCOC(=O)c1c2c3c(cccc3[nH]c1=O)C(=O)c1ccccc1-2
// result inactive

====

measurement-protocol: NOD1 signaling inhibitors, primary screen, cell-based, luminescence, uHTS (AID 1578);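 note: HEK-293T reporter cells stimulated with the NOD1 agonist gamma-tri-DAP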
condition-description: NOD1-driven NF-kB luciferase reporter cells, at 4 µM, stronger effect = higher value
The campaign covered roughly 290,000 compounds. About 3,000 (1%) were called active. The entries come from a sample that favours actives as a whole.
Classify as follows. Reported inhibition greater than or equal to 10%: yes. Reported inhibition below: no.

Answered cases to consult:
C/C(=N\NC(N)=O)c1ccccc1 :: no
CC(/C=C/c1ccccc1)=N/NC(=O)CNC(=O)c1ccc2c(c1)OCO2 :: no
COc1ccc(CCn2ccc(O)c(Cc3ccc(Cl)cc3Cl)c2=O)cc1OC :: no
NC(=O)N/N=C(/CCCCCC/C(=N\NC(N)=O)c1ccccc1)c1ccccc1 :: yes
CCCNC(=O)COC(=O)CCC(=O)c1cccs1 :: no

Consider the record given below.
// query Record COc1cc(Cl)c(C)cc1NC(=O)c1ccc(NS(=O)(=O)c2ccc(F)c(F)c2)cc1 ; criterion: inhibition no lower than 10%. Met?
// result yes

====

measurement-protocol: NOD1 signaling inhibitors, primary screen, cell-based, luminescence, uHTS (AID 1578);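 note: HEK-293T reporter cells stimulated with the NOD1 agonist gamma-tri-DAP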
condition-description: NOD1-driven NF-kB luciferase reporter cells, at 4 µM, stronger effect = higher value
Screen size: about 290,000 compounds; about 3,000 (1%) were called active. This is one part of a sample in which actives are shown more often than they occur.
Classify as follows. Reported inhibition greater than or equal to 20%: true. Reported inhibition below: false.

Answered cases to consult:
Cc1ccc(CN(C(=O)c2ccc([N+](=O)[O-])cc2)C2CCS(=O)(=O)C2)o1 (stereo unspecified) :: false
O=C1NC(=S)S/C1=C\c1ccc(SCc2ccccc2)o1 :: true
O=C1CC(N(CCc2ccccc2)C(=S)Nc2ccccc2)C(=O)N1c1ccc(Br)cc1 (stereo unspecified) :: false
CCCSc1nsc(NC(=O)Nc2ccc(F)cc2F)n1 :: true
COc1cccc(NC(=O)Nc2nc(SC(C)(C)C)ns2)c1 :: true
CCc1c(C)nc2c(Br)cccc2c1SCCC#N :: true

// query Record Cc1ccc2cc(C#N)c(NCCNC(=S)NCCCN(C)C)nc2c1C ; criterion: inhibition no lower than 20%. Met?
// result false

// query Follow-up entry: CCSc1nsc(NC(=O)Nc2ccc(F)cc2F)n1
// result true

// query Follow-up entry: CCSc1nsc(NC(=O)Nc2cccc(OC)c2)n1
// result true

// query Follow-up entry: Cc1ccc(S(=O)(=O)Nc2nc3ccccc3nc2NCC2CCCO2)c(C)c1 (stereo unspecified)
// result false

====

measurement-protocol: NOD1 signaling inhibitors, primary screen, cell-based, luminescence, uHTS (AID 1578);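 note: HEK-293T reporter cells stimulated with the NOD1 agonist gamma-tri-DAP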
condition-description: NOD1-driven NF-kB luciferase reporter cells, at 4 µM
The whole screen tested about 290,000 compounds, of which about 3,000 (1%) were called active. No stated cut-off is given here; in the data, active means inhibition mostly above about 36% (no sharp cut-off); inactive means mostly below about 34%. The sample holds actives, similar compounds and a random draw of the others, so the mix is not that of the screen.
Respond with a class label; see Yes (active), No (inactive)

Fc1ccc(Sc2ccccc2CNC2=NCCN2)cc1 :: No
CCNc1nc(NC(C)C)nc(Oc2ccc(/C=N/O)cc2)n1 :: No
CCN(CC)C(=O)c1oc2ccc(S(=O)(=O)N3CCCCCC3)cc2c1C :: No
O=C(CN1CC[n+]2c(-c3ccccc3)csc21)c1ccc(Br)cc1 :: No

// query Hi, do you know how O=C(CN1CC[n+]2c(-c3cccs3)csc21)c1ccc(-c2ccccc2)cc1 came out in this test?
// result Yes

// query Follow-up entry: Fc1ccccc1Sc1ccccc1CNC1=NCCN1
// result Yes

====

measurement-protocol: NOD1 signaling inhibitors, primary screen, cell-based, luminescence, uHTS (AID 1578);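 note: HEK-293T reporter cells stimulated with the NOD1 agonist gamma-tri-DAP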
condition-description: NOD1-driven NF-kB luciferase reporter cells, at 4 µM, stronger effect = higher value
About 3,000 (1%) of roughly 290,000 compounds were called active. Shown is part of a subset that was picked to be rich in actives.
measured-parameter: inhibition (%)
Provide the reading as a plain figure in %.

Consider the reported inhibition for these compounds:
Oc1c(Cl)cc(Cl)c(Cl)c1Cc1c(O)c(Cl)cc(Cl)c1Cl :: 85.9
COc1ccc(/C=C2\CCC/C(=C\c3ccc(OC)c(OC)c3OC)C2=O)c(OC)c1OC :: -1
Cc1ccc(S(=O)(=O)CNC(=O)c2ccccc2)cc1 :: -6.8
COc1cc(/C=C/C(=O)c2ccc(O)cc2)ccc1OCC#N :: 29.2
CCCCNc1ccc(C(CC(N)=O)NC(=O)Cc2ccc(Br)cc2)cc1[N+](=O)[O-] (stereo not drawn) :: -9.3
Cc1ccc2c(c1)Oc1ccc(NC(=O)CCCl)cc1C(=O)N2 :: 0.2
Cn1ccs/c1=N\C(=O)Nc1cccc(Cl)c1 :: 110
Cn1c(N/N=C/c2cccs2)nc2c1c(=O)n(Cc1ccccc1)c(=O)n2C :: -22.5

// query Form field: reported inhibition of Cc1c(CCO)c(=O)[nH]n1S(=O)(=O)c1ccc(Cl)cc1Cl
// result -2.3

// query Follow-up entry: Cc1ccc2c(c1)Oc1ccc(NC(=O)CCl)cc1C(=O)N2
// result 103

// query Follow-up entry: O=C(CN1CCCc2ccccc21)NC(=O)NCc1ccccc1
// result -4.3

====

measurement-protocol: NOD1 signaling inhibitors, primary screen, cell-based, luminescence, uHTS (AID 1578);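 note: HEK-293T reporter cells stimulated with the NOD1 agonist gamma-tri-DAP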
condition-description: NOD1-driven NF-kB luciferase reporter cells, at 4 µM, stronger effect = higher value
Out of some 290,000 compounds screened, about 3,000 (1%) were called active. This excerpt belongs to a sample that is enriched for actives.
Classify as follows. Reported inhibition greater than or equal to 30%: class 1. Reported inhibition below: class 0.

CC(=O)N1CCOc2cc(S(=O)(=O)N3CCN(c4ccccc4)CC3)c(Cl)cc21 :: class 0
CC(=O)N1CCOc2ccc(S(=O)(=O)NC(C)c3ccccc3)cc21 (stereo not given) :: class 0
CCc1nc(CN2CCN(c3ccc(C(F)(F)F)cn3)CC2)c(C)[nH]1 :: class 0

Consider the record given below.
// query Record O=C(Cn1ncc(Cl)c(Cl)c1=O)N1CCN(S(=O)(=O)c2ccc3ccccc3c2)CC1 ; criterion: inhibition no lower than 30%. Met?
// result class 1

====

measurement-protocol: NOD1 signaling inhibitors, primary screen, cell-based, luminescence, uHTS (AID 1578);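 note: HEK-293T reporter cells stimulated with the NOD1 agonist gamma-tri-DAP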
condition-description: NOD1-driven NF-kB luciferase reporter cells, at 4 µM, stronger effect = higher value
In all, about 290,000 compounds went through this assay and about 3,000 (1%) were called active. Only a selection was taken, and actives are over-represented in it overall.
measured-parameter: inhibition (%)
Provide the reading as a plain figure in %.

Consider the reported inhibition for these molecules:
COc1ccc(C(=O)NCc2nnc(SCC(=O)NCCc3ccccc3)o2)cc1 :: -16.6
Cc1cc(C)c(C#N)c(SCc2cc3c(cc2Cl)OCO3)n1 :: 26.9
C(=C\c1ccncc1)/c1ccccc1 :: -7.3

// query Form field: reported inhibition of Cc1cccc(NC(=O)C2C3CCC4C(CCC32)C4(Cl)Cl)c1 (centres undefined)
// result -38.6

// query Follow-up entry: COc1ccc(Oc2c(C(F)(F)F)oc3cc(OCC(=O)O)ccc3c2=O)cc1
// result 4.6

====

measurement-protocol: NOD1 signaling inhibitors, primary screen, cell-based, luminescence, uHTS (AID 1578);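 note: HEK-293T reporter cells stimulated with the NOD1 agonist gamma-tri-DAP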
condition-description: NOD1-driven NF-kB luciferase reporter cells, at 4 µM, stronger effect = higher value
Out of some 290,000 compounds screened, about 3,000 (1%) were called active. Only a selection was taken, and actives are over-represented in it overall.
# reported inhibition; entries follow

Consider the reported inhibition for these compounds:
O=C(c1ccc(N2CCCC2)c([N+](=O)[O-])c1)N1CCN(c2ccccn2)CC1 :: -8.1% (inactive)
Cc1oncc1C(=O)N1CCCC(CO)(Cc2ccc(F)cc2F)C1 (stereo unspecified) :: -6.9% (inactive)

// query Form field: reported inhibition of O=C(CCc1nc(-c2ccccc2)no1)NCc1ccco1
// result 11% (inactive)

// query Follow-up entry: O=C(CN1CCOCC1)OCCCc1ccccc1
// result -23.1% (inactive)

// query Follow-up entry: N#Cc1cc(C(=O)c2ccccc2O)cn(-c2nccs2)c1=O
// result -9.7% (inactive)

// query Follow-up entry: CCCCOc1ccc(-c2ncc(C(=O)O)c(C)n2)cc1
// result -62% (inactive)

Hey, just so you know, these numbers are from PubChem BioAssay AID1578.
